- system-name: ABL1(F317I)-phosphorylated (Homo sapiens, UniProt P00519, F317I)
- Construct: purchased Eurofins DiscoverX KINOMEscan (scanTK)
- Sequence (P00519 whole entry F317I): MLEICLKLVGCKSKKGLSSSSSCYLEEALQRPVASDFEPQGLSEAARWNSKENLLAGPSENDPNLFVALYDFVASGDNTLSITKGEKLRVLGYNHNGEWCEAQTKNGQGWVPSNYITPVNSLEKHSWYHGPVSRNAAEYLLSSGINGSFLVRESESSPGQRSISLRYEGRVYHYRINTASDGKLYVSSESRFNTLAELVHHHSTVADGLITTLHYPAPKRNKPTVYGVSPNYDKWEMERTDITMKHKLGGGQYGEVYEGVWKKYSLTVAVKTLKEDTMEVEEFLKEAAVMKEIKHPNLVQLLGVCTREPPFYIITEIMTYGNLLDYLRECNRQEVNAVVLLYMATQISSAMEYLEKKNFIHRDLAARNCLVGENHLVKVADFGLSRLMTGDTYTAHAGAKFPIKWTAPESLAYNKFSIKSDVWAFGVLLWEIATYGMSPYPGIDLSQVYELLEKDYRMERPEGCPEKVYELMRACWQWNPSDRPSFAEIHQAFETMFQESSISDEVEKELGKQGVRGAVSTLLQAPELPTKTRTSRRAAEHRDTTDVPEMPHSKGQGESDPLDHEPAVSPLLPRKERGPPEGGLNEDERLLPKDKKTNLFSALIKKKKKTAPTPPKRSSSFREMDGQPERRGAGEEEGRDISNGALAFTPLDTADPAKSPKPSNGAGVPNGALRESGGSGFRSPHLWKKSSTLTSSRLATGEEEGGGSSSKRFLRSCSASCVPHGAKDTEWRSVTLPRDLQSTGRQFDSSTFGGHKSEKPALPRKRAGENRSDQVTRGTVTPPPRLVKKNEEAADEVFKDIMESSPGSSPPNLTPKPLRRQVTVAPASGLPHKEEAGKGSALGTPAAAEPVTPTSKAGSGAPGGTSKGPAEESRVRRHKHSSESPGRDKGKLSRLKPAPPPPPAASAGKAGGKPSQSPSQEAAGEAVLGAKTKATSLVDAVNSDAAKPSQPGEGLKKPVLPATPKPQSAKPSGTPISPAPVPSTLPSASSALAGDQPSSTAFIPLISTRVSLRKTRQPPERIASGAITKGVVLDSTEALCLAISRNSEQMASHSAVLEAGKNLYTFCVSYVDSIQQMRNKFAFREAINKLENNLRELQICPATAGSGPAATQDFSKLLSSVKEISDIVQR
- test-details: KINOMEscan ScanTK
- Type: binding
- particulars: @1000nM, read-out: %Control
Reported remaining binding at 1 µM values for the following compounds.
reported-endpoint: remaining binding at 1 µM (%)

| compound | reported-endpoint | test-result |
| --- | --- | --- |
| CNC(=O)c1cnc(S(C)(=O)=O)nc1N1CCCC(n2nc(-c3ccc(Oc4ccccc4)cc3)c3c(N)ncnc32)C1 (centres unmarked) | remaining binding at 1 µM | 90 |
| CCOC(=O)c1cnc(S(C)(=O)=O)nc1N1CCC[C@@H](n2nc(-c3ccc(Oc4ccccc4)cc3)c3c(N)ncnc32)C1 | remaining binding at 1 µM | 88 |
| Cc1cnc(S(C)(=O)=O)nc1N1CCCC(n2nc(-c3ccc(Oc4ccccc4)cc3)c3c(N)ncnc32)C1 (centres unmarked) | remaining binding at 1 µM | 90 |
| C=CC(=O)N1CCC[C@@H](n2nc(-c3ccc(Oc4ccccc4)cc3)c3c(N)ncnc32)C1 [Compound 1g, Ibrutinib, reference compound] | remaining binding at 1 µM | 73 |
| COC(=O)c1cnc(S(C)(=O)=O)nc1N1CCCC(n2nc(-c3ccc(Oc4ccccc4)cc3)c3c(N)ncnc32)C1 (centres unmarked) | remaining binding at 1 µM | 79 |

###

- system-name: EGFR(L747-E749del, A750P) (Homo sapiens, UniProt P00533, A750P/DEL747-749)
- Construct: purchased Eurofins DiscoverX KINOMEscan (scanTK)
- Sequence (P00533 with tags, fused parts or gaps DEL747-749/A750P limits assumed): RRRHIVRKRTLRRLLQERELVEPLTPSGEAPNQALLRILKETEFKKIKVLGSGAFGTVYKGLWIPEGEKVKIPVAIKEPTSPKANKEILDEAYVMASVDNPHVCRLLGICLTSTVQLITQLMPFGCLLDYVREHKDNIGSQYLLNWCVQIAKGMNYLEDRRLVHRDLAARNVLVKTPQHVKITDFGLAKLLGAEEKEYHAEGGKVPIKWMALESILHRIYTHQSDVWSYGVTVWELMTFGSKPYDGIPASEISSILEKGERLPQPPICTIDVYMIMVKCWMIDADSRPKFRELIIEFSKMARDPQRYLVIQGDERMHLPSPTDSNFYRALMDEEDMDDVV
- test-details: KINOMEscan ScanTK
- Format: binding
- particulars: read-out: %Control @1000nM

| molecule | unit | remaining binding at 1 µM |
| --- | --- | --- |
| Cc1cnc(S(C)(=O)=O)nc1N1CCCC(n2nc(-c3ccc(Oc4ccccc4)cc3)c3c(N)ncnc32)C1 (stereo not shown) | % | 83 |
| COC(=O)c1cnc(S(C)(=O)=O)nc1N1CCCC(n2nc(-c3ccc(Oc4ccccc4)cc3)c3c(N)ncnc32)C1 (stereo not shown) | % | 73 |
| CNC(=O)c1cnc(S(C)(=O)=O)nc1N1CCCC(n2nc(-c3ccc(Oc4ccccc4)cc3)c3c(N)ncnc32)C1 (stereo not shown) | % | 52 |
| CCOC(=O)c1cnc(S(C)(=O)=O)nc1N1CCC[C@@H](n2nc(-c3ccc(Oc4ccccc4)cc3)c3c(N)ncnc32)C1 | % | 67 |

###

Listing: remaining binding at 1 µM of selected molecules
- system-name: JAK1(JH2domain-pseudokinase) (Homo sapiens, UniProt P23458)
- Construct: JAK1(JH2domain-pseudokinase); purchased Eurofins DiscoverX KINOMEscan (scanTK)
- Sequence (P23458 583-855 limits assumed): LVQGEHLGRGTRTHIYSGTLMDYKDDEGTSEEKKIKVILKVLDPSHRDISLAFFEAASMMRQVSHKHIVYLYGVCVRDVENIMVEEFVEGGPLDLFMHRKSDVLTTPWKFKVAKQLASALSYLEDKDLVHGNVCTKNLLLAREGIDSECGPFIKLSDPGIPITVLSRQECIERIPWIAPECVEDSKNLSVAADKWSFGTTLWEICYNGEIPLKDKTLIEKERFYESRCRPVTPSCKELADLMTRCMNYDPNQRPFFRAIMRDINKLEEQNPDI
- test-details: KINOMEscan ScanTK
- Format: binding
- particulars: read-out: %Control @1000nM

| molecule | remaining binding at 1 µM [%] |
| --- | --- |
| CCOC(=O)c1cnc(S(C)(=O)=O)nc1N1CCC[C@@H](n2nc(-c3ccc(Oc4ccccc4)cc3)c3c(N)ncnc32)C1 | 99 |
| Cc1cnc(S(C)(=O)=O)nc1N1CCCC(n2nc(-c3ccc(Oc4ccccc4)cc3)c3c(N)ncnc32)C1 (centres unmarked) | 100 |
| CNC(=O)c1cnc(S(C)(=O)=O)nc1N1CCCC(n2nc(-c3ccc(Oc4ccccc4)cc3)c3c(N)ncnc32)C1 (centres unmarked) | 100 |
| COC(=O)c1cnc(S(C)(=O)=O)nc1N1CCCC(n2nc(-c3ccc(Oc4ccccc4)cc3)c3c(N)ncnc32)C1 (centres unmarked) | 99 |
| C=CC(=O)N1CCC[C@@H](n2nc(-c3ccc(Oc4ccccc4)cc3)c3c(N)ncnc32)C1 [Compound 1g, Ibrutinib, reference compound] | 95 |
